Cited source: the supplement of paper PMC9170038

# apparent KD of MS2 coat protein listing for each entry below
System: MS2 coat protein
Assay: apparent KD of MS2 coat protein; designed switch direction (-1 OFF switch, 1 ON switch): -1; higher = weaker reporter binding
Details: input ligand: FMN 200 uM
Value expressed in nM; do not type the unit.

A selection of reference data follows.
UGUUGUUACGCAGGAUAUGCAUGAGGAUCACCCAUGCAACCACAUUUAACAUGAGGAUCACCCAUGUAGAAGGGCGGGUUAACA [pwkr exNG2 2xF5 1xFMN.1] (Eterna round: R96, puzzle: Exclusion NG 2)	77.5
UGUUUAUAUGAAGGAUAUACUUAACAUGAGGAUCACCCAUGUGGUGUUGUGAGUGAGUGAGUUUAGUAGAAGGUCAAUGAUUUU [JMF's solution 75] (Eterna round: R96, puzzle: Exclusion NG 2)	1030

// below: apparent KD of MS2 coat protein requested for another sequence
Q: GET /values?readout=apparent KD of MS2 coat protein&item= UAUGGUCUUGAGGAUAUACCAGGGUGAGUCCAGGUAGAAGGUAGGACAUGAGGAUCACCCAUGUGACGUAGUGU [Eternabot (L2) Solution 49] (Eterna round: R97, puzzle: Exclusion 6)
Ans: 434
